System: OVCAR-8
Experiment: NCI tumour cell line growth inhibition, 48 h
The source made the active and inactive calls. No stated cut-off is given here; in the data, active = GI50 up to about 1.1 µM and inactive = higher. Non-standard residues stand in square brackets, D forms with d. Residues, ends and D or L forms follow the SMILES beside them. ξ: configuration not given here. *: point of attachment. Cbz = O=C(OCc1ccccc1)*; ξK = NCCCCC(N)C(=O)O
Assay Endpoint: GI50

Some compounds with recorded GI50:
1. Cc1c(/C=N/N(C)C)oc2c1cc(O)c1ncccc12: 4.07 µM (inactive)
2. Cc1ccc(/C=C2\CCCCC2=O)cc1: > 100 µM (inactive)
3. CC(C)[C@@H]1CC[C@@H](C)C[C@H]1OC(=O)/C=C1/C2C=CC(O2)C1C(=O)O[C@@H]1C[C@H](C)CC[C@H]1C(C)C (some centres not stated): > 100 µM (inactive)
4. CC1=[N+]([O-])C(C)(C)N(N=O)C1(C)C: > 10 µM (inactive)
5. CC1(C2CCC3(C)OC3C2)CO1 (configuration not stated): > 100 µM (inactive)

List the reported GI50 of each compound below.
1. CCCCc1ccc(Nc2nc(N)c3ncn(COCCO)c3n2)cc1
2. CCCCCc1cc2cc3c(c(O)c2c(=O)[nH]1)C1(CCC3)C(=O)c2c(O)ccc(O)c2C1=O

25.9 µM (inactive)
59.3 µM (inactive)

List the reported GI50 of each compound below.
1. COC(=O)C1=C(OC(=O)/C(=C/c2ccccc2)c2ccc(OC)cc2)C(C(=O)OC)[C@@]2(O)[C@@H](C(=O)OC)[C@H](C)C[C@@H]1[C@@H]2C(=O)OC (some centres not stated)
2. COc1ccc(NS(=O)(=O)c2ccc(NC(NC(=O)CC(C)C)(C(F)(F)F)C(F)(F)F)cc2)nn1
3. COc1ccc(CC(O)CN2CCOCC2)cc1 (configuration not stated)
4. OCCNCCOc1ccc(/C(=C(/Cl)c2ccccc2)c2ccccc2)cc1
5. NCCCCC(NC(=O)OCc1ccccc1)C(=O)NCC(N)=O (configuration not stated) (Cbz-[ξK]-Gly-NH2)

["35.6 µM (inactive)", "> 100 µM (inactive)", "> 100 µM (inactive)", "13.5 µM (inactive)", "> 100 µM (inactive)"]
